Molecular target: human PLK1 (NLuc-PLK1) (Homo sapiens)
Construct: plasmid DNAs encoding N- and C-terminal fusions of full-length PLK1 with NLuc; host or cells: HEK293
Sequence (P53350 whole entry, the tested form may be a part): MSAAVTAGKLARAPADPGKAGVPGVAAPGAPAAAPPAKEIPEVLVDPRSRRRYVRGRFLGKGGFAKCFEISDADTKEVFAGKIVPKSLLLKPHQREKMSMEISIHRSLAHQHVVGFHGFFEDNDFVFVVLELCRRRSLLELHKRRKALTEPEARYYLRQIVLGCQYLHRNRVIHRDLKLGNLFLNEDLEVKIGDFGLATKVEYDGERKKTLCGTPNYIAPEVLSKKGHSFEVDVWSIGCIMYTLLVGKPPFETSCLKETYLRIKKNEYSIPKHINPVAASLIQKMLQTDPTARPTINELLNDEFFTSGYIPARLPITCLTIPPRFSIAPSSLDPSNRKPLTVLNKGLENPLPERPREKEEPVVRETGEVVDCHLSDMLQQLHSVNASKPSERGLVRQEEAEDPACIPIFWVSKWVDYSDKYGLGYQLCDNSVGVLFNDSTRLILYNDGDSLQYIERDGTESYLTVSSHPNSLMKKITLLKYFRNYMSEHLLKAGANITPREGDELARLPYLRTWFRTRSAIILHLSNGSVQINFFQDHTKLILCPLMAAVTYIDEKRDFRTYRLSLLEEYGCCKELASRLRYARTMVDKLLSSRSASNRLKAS
Assay: PLK1 NanoBRET target engagement assay (NLuc-PLK1, N-terminal fusion) in live HEK293 cells
Assay type: cell-based
Details: Probe 11 Conc. 0.2 μM, NLuc-PLK1, ADH format; read-out: apparent IC50
pIC50: −log10 of the molar value.

molecule	pIC50
CC[C@@H]1C(=O)N(C)c2cnc(Nc3ccc(C(=O)NC4CCNCC4)cc3OC)nc2N1C(C)C [compound 1]	6.64

* * *

Target: human PLK2 (NLuc-PLK2) (Homo sapiens)
Construct: ORFs corresponding to UniProt isoform 1 (PLK1: P53350-1, PLK2: Q9NYY3-1, and PLK3: Q9H4B4-1)
Sequence (Q9NYY3 whole entry, canonical isoform): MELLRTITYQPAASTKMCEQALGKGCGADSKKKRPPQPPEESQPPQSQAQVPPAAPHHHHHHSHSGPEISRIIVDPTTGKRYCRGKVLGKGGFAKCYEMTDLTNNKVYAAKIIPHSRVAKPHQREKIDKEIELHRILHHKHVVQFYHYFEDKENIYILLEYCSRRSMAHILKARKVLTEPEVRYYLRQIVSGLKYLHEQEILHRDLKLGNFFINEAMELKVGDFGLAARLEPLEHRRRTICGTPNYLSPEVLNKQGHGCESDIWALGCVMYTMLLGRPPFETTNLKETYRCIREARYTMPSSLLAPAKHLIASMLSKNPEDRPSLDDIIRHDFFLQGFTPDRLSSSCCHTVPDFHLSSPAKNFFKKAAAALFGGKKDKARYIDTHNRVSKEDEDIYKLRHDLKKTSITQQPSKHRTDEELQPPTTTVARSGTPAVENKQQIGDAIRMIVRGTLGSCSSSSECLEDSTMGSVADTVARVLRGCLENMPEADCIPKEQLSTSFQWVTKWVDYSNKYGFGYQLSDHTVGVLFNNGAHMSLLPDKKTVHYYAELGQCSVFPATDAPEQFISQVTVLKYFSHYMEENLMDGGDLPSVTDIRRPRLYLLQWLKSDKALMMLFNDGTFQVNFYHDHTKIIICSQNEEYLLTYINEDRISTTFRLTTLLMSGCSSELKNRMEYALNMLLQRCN
Test: PLK2 NanoBRET target engagement assay (NLuc-PLK2) in live HEK293 cells
Conditions: HEK293, probe 11 1.0 µM, 2 h; average of two technical replicates ±15%
pIC50: −log10 of the molar value.

compound	test.target	pIC50
CC[C@@H]1C(=O)N(C)c2cnc(Nc3ccc(C(=O)N[C@H]4CC[C@H](N5CCN(CC6CC6)CC5)CC4)cc3OC)nc2N1C(C)C	human PLK2 (NLuc-PLK2) (Homo sapiens)	7.64
CCC1(F)CN(C2CCCC2)c2nc(Nc3ccc(C(=O)NC4CCN(C)CC4)cc3OC)ncc2N(C)C1=O (stereo not drawn)	human PLK2 (NLuc-PLK2) (Homo sapiens)	7.19
COc1cc(C(=O)NC2CCN(C)CC2)ccc1Nc1ncc2c(n1)N(C1CCCC1)CC(F)(F)C(=O)N2C	human PLK2 (NLuc-PLK2) (Homo sapiens)	7.35

Hey, just so you know, these numbers are from paper PMC10095950.
